Cited source: patent US5648359A

# Tested on: TNF production or secretion in mouse peritoneal macrophages
# measurement.notes: Inhibitory effect on TNF production or secretion in mouse peritoneal macrophages (30 μM)
# Type: cell-based, mouse (BALB/c)
# condition.label: Mus musculus; 30 μM compound; LPS 10 μg/ml, 18 hours; TNF by L929 bioassay
Please respond with reported inhibition at 30 µM for every item in the list.
Answers are plain numbers, in %.

* NCCCN1C2Cc3cc4c(cc3C1Cc1cc3c(cc12)OCO3)OCO4 | -4
* N#CCCN1C2Cc3cc4c(cc3C1Cc1cc3c(cc12)OCO3)OCO4 | -48

From here, focus on the item given below.
Quick check: inhibition at 30 µM of `CCOC(=O)CCN1C2Cc3cc4c(cc3C1Cc1cc3c(cc12)OCO3)OCO4` ?
6
